system: T-47D breast; experiment: NCI-60 one-dose screen, 48 h (100 = growth as untreated, 0 = no growth, -100 = all killed); details: 10 µM unless noted
About 83,000 compounds went through this panel and 20% of them were active in at least one assay; those are over-represented in the sample as a whole.
hey, just use YES if measured growth is less than 40%, otherwise NO

Prompt: API: query returns whether the molecule falls strictly under 40% in growth. Query: Cc1ccc2sc3c(c2c1)OC(N)=C(C#N)C3c1cccc(F)c1 (centres undefined)
Completion: YES

***
Prompt: API: query returns whether the molecule falls strictly under 40% in growth. Query: COc1cccc(C(=O)Nc2cccc(C#Cc3cccc4[nH]nc(N)c34)c2)c1
Completion: YES

Prompt: API: query returns whether the molecule falls strictly under 40% in growth. Query: O=C(Nc1nonc1-c1ccccc1)c1ccc(C(F)(F)F)cc1
Completion: NO

Prompt: API: query returns whether the molecule falls strictly under 40% in growth. Query: COc1ccc(/C=C(/C)c2ccc3ccc(OC)cc3[o+]2)c(O)c1
Completion: NO

Prompt: API: query returns whether the molecule falls strictly under 40% in growth. Query: COc1ccc(NC2=C(Cl)C(=O)c3nc(C)ccc3C2=O)cc1OC
Completion: YES

Prompt: API: query returns whether the molecule falls strictly under 40% in growth. Query: CN(C)CCN(C)c1ccc2ncc(C#Cc3cncc(C(=O)Nc4ccc(CN5CCN(C)CC5)c(C(F)(F)F)c4)c3)n2n1
Completion: NO

Prompt: API: query returns whether the molecule falls strictly under 40% in growth. Query: C#C[C@]1(O)CC[C@H]2[C@@H]3CC=C4c5sc(-c6ccc7c(c6)OCO7)nc5CC[C@]4(C)[C@H]3CC[C@@]21C
Completion: NO

Prompt: API: query returns whether the molecule falls strictly under 40% in growth. Query: COc1cc2nc(Cl)nc(Nc3cccc(C4=Nc5c(N)nc(N)nc5NC(c5ccc(F)cc5)C4)c3)c2cc1OC (centres undefined)
Completion: NO

Prompt: API: query returns whether the molecule falls strictly under 40% in growth. Query: CCc1cccc(NC(=O)CNc2cc(S(=O)(=O)N(C)C)cc(C)c2C)c1
Completion: NO

Prompt: API: query returns whether the molecule falls strictly under 40% in growth. Query: CC(C)(C)c1ccc(C(=O)Nc2nc3ccc(O)cc3s2)cc1
Completion: YES

Prompt: API: query returns whether the molecule falls strictly under 40% in growth. Query: N#Cc1cccc(CN2CCC3=C(C2)C(=O)N(Cc2ccc(Cl)cc2)C2=NCCCN23)c1
Completion: YES

Prompt: API: query returns whether the molecule falls strictly under 40% in growth. Query: O=C(NNc1nc2cc(F)cc(F)c2n2cccc12)c1cnccn1
Completion: YES

Prompt: API: query returns whether the molecule falls strictly under 40% in growth. Query: CNC(=O)c1c(NC(=O)c2cccc(C(F)(F)F)c2F)sc2c1CCC(=O)C2
Completion: YES

Prompt: API: query returns whether the molecule falls strictly under 40% in growth. Query: COc1cc(/C=C2\C(=O)Nc3ccccc32)ccc1OCc1ccc(F)cc1
Completion: NO

Prompt: API: query returns whether the molecule falls strictly under 40% in growth. Query: NS(=O)(=O)c1ccc(-n2cc(CN3CCCCC3)nn2)cc1
Completion: NO

Prompt: API: query returns whether the molecule falls strictly under 40% in growth. Query: O=C(CCC(=O)N1CCOCC1)OCCCCCCSc1ccc([N+](=O)[O-])c2nonc12
Completion: YES

Prompt: API: query returns whether the molecule falls strictly under 40% in growth. Query: CC1(C)CC[C@]2(C(=O)O)CC[C@]3(C)C(=CC[C@@H]4[C@@]5(C)CC/C(=N\OCCC#N)C(C)(C)[C@@H]5CC[C@]43C)[C@@H]2C1
Completion: NO

Prompt: API: query returns whether the molecule falls strictly under 40% in growth. Query: NS(=O)(=O)c1ccc(Nc2cc(-c3ccccc3)nc(SCC(=O)c3ccccc3)n2)cc1
Completion: NO
